Tested on: β-galactosidase in CMV-LacZ C2C12 myoblasts
experimental-protocol: CMV-LacZ secondary screen in C2C12 myoblasts (β-Gal stabilizing assay)
Type: cell-based, mouse
conditions: 0.5 uM; CMV-LacZ C2C12 myoblasts
Recorded CMV-LACZ in Myoblasts (β-galactosidase activity relative to DMSO), one value per entry.
experimental-endpoint: CMV-LACZ in Myoblasts (β-galactosidase activity relative to DMSO)

{"columns": ["compound", "value-reported"],
 "data": [
  ["Cc1[nH]c2ccc(F)cc2c1CCN(Cc1ccco1)C(=S)NC(C)(C)C [MLS000419286-01]", 0.9960],
  ["Cc1cc([N+](=O)[O-])ccc1NC(=O)C(C)N1CCN(c2ccccn2)CC1 (stereo not shown) [MLS000764729-01]", 0.9865],
  ["O=C(NCCc1ccc(Cl)cc1)C1CCCO1 (stereo not shown) [MLS001198271-01]", 1.0204],
  ["CNC(=O)CSc1nnc(-c2ccc3c(c2)OCO3)n1C [MLS000717689-01]", 1.0125]
]}

====

System: β-galactosidase in CMV-LacZ C2C12 myoblasts
experimental-protocol: CMV-LacZ secondary screen in C2C12 myoblasts (β-Gal stabilizing assay)
Format: cell-based, mouse
conditions: 5 uM; CMV-LacZ C2C12 myoblasts
Each record is given rule met if its reported CMV-LACZ in Myoblasts (β-galactosidase activity relative to DMSO) is strictly below 0.9. Records at or above 0.9 are given rule not met.

{"columns": ["compound", "class-name"],
 "data": [
  ["CCC(CC)C(=O)Nc1c(C(=O)N2CCN(c3ccccc3)CC2)oc2ccccc12", "rule not met"],
  ["CCCCN1CC(=O)N2Cc3[nH]c4ccccc4c3C[C@H]2C1=O", "rule not met"],
  ["CC(NC(=O)c1ccc(C(C)(C)C)cc1)C(c1cccs1)N1CCOCC1 (stereo not drawn)", "rule not met"],
  ["O=C(Nc1ccccc1Cl)C1CCCN1C(=O)OCc1ccccc1 (stereo not drawn)", "rule not met"],
  ["O=C(CSc1nnc(COc2ccc(Br)cc2)o1)NC1CCCCC1", "rule met"]
]}

====

System: β-galactosidase in CMV-LacZ C2C12 myotubes
experimental-protocol: CMV-LacZ secondary screen in C2C12 myotubes (β-Gal stabilizing assay)
Assay type: cell-based, mouse
conditions: 40 uM; C2C12 CMV-LacZ myotubes; fold relative to DMSO
Rule for this label: Met means CMV-LACZ in Myotubes, signal relative to DMSO is less than 1; Not met means CMV-LACZ in Myotubes, signal relative to DMSO is at least 1.

{"columns": ["molecule", "class-name"],
 "data": [
  ["CCCCN(CCCC)CCNC(=O)c1cn(C)c2ccc(S(=O)(=O)N(C)C3CCCCC3)cc2c1=O [MLS000913117-01]", "Met"],
  ["COc1cc(NC(=O)CN(C)S(=O)(=O)c2ccc3c(c2)CC(C)N3C(C)=O)cc(OC)c1OC (stereo not shown) [MLS001122792-01]", "Met"],
  ["N#C/C(=C/c1ccc(N2CCOCC2)o1)C(=O)Nc1ccccc1 [MLS000689218-01]", "Not met"],
  ["CC1CCCCN1c1ncnc(N)c1[N+](=O)[O-] (stereo not shown) [MLS000683234-01]", "Met"],
  ["CCCCCCC1CC(=O)NC(=O)N1 (stereo not shown) [MLS000768008-01]", "Met"],
  ["CC(C)(C)c1csc(NC(=O)c2cccnc2)n1 [MLS001164432-01]", "Not met"],
  ["COC(=O)c1ccc(C2C(C(=O)c3cc4ccccc4o3)=C(O)C(=O)N2CCN2CCOCC2)cc1 (stereo not shown) [MLS001146463-01]", "Not met"],
  ["CCOc1ccc(Br)cc1S(=O)(=O)Nc1ccc(C(=O)Nc2ccccc2OC)cc1 [MLS000418650-01]", "Not met"],
  ["O=C(O)C(Cc1ccc(O)cc1)N1C(=O)c2ccccc2C1=O (stereo not shown) [MLS001165394-01]", "Met"],
  ["O=C(CSc1nnc2c(n1)[nH]c1ccccc12)NCc1ccccc1F [MLS001225512-01]", "Met"]
]}

====

Test system: α7 integrin (LacZ reporter in α7βgal+/− myoblasts)
experimental-protocol: Myoblast α7+/LacZ integrin FDG assay (Burkin assay in myoblasts, 96-well)
Format: cell-based, mouse
conditions: 10 uM; α7+/LacZ myoblasts, 96-well
experimental-endpoint: Burkin Assay in Myoblasts, value relative to DMSO

{"columns": ["molecule", "value-reported"],
 "data": [
  ["Cc1cc(C)cc(-n2nnc(C(=O)NCc3ccccc3Cl)c2N)c1", 0.9866],
  ["CCCCS(=O)(=O)N1CCCC(C(=O)NCCc2ccccc2)C1 (stereo not drawn)", 0.9907],
  ["CCOc1ccc(S(=O)(=O)NCCC(=O)NCC(c2cccs2)N2CCOCC2)cc1 (stereo not drawn)", 0.9857],
  ["NS(=O)(=O)c1ccc(NC(=O)c2cc(-c3ccccc3O)n[nH]2)cc1", 0.8173],
  ["CC(Oc1ccccc1)C(=O)N1CCN(C(=O)C(C)Oc2ccccc2)CC1 (stereo not drawn)", 1.071],
  ["C=CCN(CC=C)C(=O)c1ccc(OC2CCN(S(=O)(=O)N(C)C)CC2)cc1", 0.9088]
]}

====

Form field: CMV-LACZ in Myoblasts (β-galactosidase activity relative to DMSO) (one value per entry).
Test system: β-galactosidase in CMV-LacZ C2C12 myoblasts
experimental-protocol: CMV-LacZ secondary screen in C2C12 myoblasts (β-Gal stabilizing assay)
Type: cell-based, mouse
conditions: 0.5 uM; CMV-LacZ C2C12 myoblasts
experimental-endpoint: CMV-LACZ in Myoblasts (β-galactosidase activity relative to DMSO)

{"columns": ["compound", "value-reported"],
 "data": [
  ["Cc1nnc(-c2ccc(N3CCOCC3)c([N+](=O)[O-])c2)o1", 0.9444],
  ["CCOc1ccccc1NC(=O)c1cccc2c1C(=O)N(C1CCCCC1)C2", 1.1004],
  ["CCOC(=O)C1(Cc2cccc(Cl)c2)CCCN(C(=O)CCSC)C1 (centres unmarked)", 1.4188],
  ["OC(c1nc2ccc(F)cc2[nH]1)C(O)c1nc2ccc(F)cc2[nH]1 (centres unmarked)", 0.9571],
  ["COCCSc1ccccc1C(=O)Nc1cc(C)cc(C)c1", 1.0332],
  ["COc1ccccc1NS(=O)(=O)c1cc(NC(=O)c2ccc(Cl)nc2)ccc1N1CCCC1", 0.9206],
  ["CCOc1ccccc1NC(=O)COC(=O)CNS(=O)(=O)c1ccc(C)cc1", 1.2117],
  ["Nc1ncnc(N2CCc3ccccc32)c1[N+](=O)[O-]", 0.8043],
  ["O=C(NCc1ccccc1)c1csc(-c2cccnc2)n1", 0.9370],
  ["Cc1ccccc1NC(=O)c1ccc2c(O)c(S(=O)(=O)c3ccccc3)c(=O)[nH]c2c1", 1.1513],
  ["CCOc1ccc2nc(Cl)sc2c1", 1.2106],
  ["CC(C)(C)c1csc(NC(=O)c2cccnc2)n1", 0.9600],
  ["O=c1[nH]c(CN2CCCCC2)nc2c1C1(CCCCC1)Cc1ccccc1-2", 1.0663],
  ["O=C(c1ccccc1)N1CCN(S(=O)(=O)c2cccs2)CC1", 0.9819]
]}

====

Reported values of CMV-LACZ in Myotubes, signal relative to DMSO for individual entries
Test system: β-galactosidase in CMV-LacZ C2C12 myotubes
experimental-protocol: CMV-LacZ secondary screen in C2C12 myotubes (β-Gal stabilizing assay)
Assay type: cell-based, mouse
conditions: 10 uM; C2C12 CMV-LacZ myotubes; fold relative to DMSO
experimental-endpoint: CMV-LACZ in Myotubes, signal relative to DMSO

{"columns": ["compound", "tested-on", "value-reported"],
 "data": [
  ["O=C(COc1ccc(Cl)cc1)N1CCN(C2CCCC2)CC1.O=C(O)C(=O)O", "β-galactosidase in CMV-LacZ C2C12 myotubes", 0.9944],
  ["COc1ccc(C(=O)Cn2nnc(-c3ccccc3NC(=O)c3ccco3)n2)cc1", "β-galactosidase in CMV-LacZ C2C12 myotubes", 1.1459],
  ["COc1ccccc1CNS(=O)(=O)c1ccc(Cl)s1", "β-galactosidase in CMV-LacZ C2C12 myotubes", 0.9034],
  ["N#C/C(=C/c1ccc(N2CCOCC2)o1)C(=O)Nc1ccccc1", "β-galactosidase in CMV-LacZ C2C12 myotubes", 1.2135],
  ["CCOC(=O)C1=C(CC)Nc2ccccc2N=C1NC(=O)c1ccc(OC)c(S(=O)(=O)N2CCCCC2C)c1 (stereo not drawn)", "β-galactosidase in CMV-LacZ C2C12 myotubes", 1.1035],
  ["CCC(CC)C(=O)Nc1c(C(=O)N2CCN(c3ccccc3)CC2)oc2ccccc12", "β-galactosidase in CMV-LacZ C2C12 myotubes", 1.1374],
  ["COc1ccccc1C(=O)OCc1ccc2sc(C)nc2c1", "β-galactosidase in CMV-LacZ C2C12 myotubes", 1.0267],
  ["CCOc1ccccc1NC(=O)c1cccc2c1C(=O)N(C1CCCCC1)C2", "β-galactosidase in CMV-LacZ C2C12 myotubes", 1.1041],
  ["COc1cc([N+](=O)[O-])cc(/C=N/NC(=O)C(O)(c2ccccc2)c2ccccc2)c1O", "β-galactosidase in CMV-LacZ C2C12 myotubes", 0.9136],
  ["Cc1ccc(-c2nc(C)sc2CC(=O)OCC(=O)Nc2c(F)cccc2F)cc1", "β-galactosidase in CMV-LacZ C2C12 myotubes", 1.067],
  ["COc1cc(C(C(=O)NC2CCCCC2)N(C(=O)c2snc(C(N)=O)c2N)c2ccc(C)cc2)ccc1O (stereo not drawn)", "β-galactosidase in CMV-LacZ C2C12 myotubes", 15.1793],
  ["CC(C)CN(C(=O)c1cccc(Cl)c1)c1c(N)n(Cc2ccccc2)c(=O)[nH]c1=O", "β-galactosidase in CMV-LacZ C2C12 myotubes", 0.8898],
  ["CN(C)C1(CN=Cc2cc(Cl)cc([N+](=O)[O-])c2O)CCCCC1", "β-galactosidase in CMV-LacZ C2C12 myotubes", 1.095],
  ["O=C(O)CC1(c2ccccc2)C(=O)c2ccccc2C1=O", "β-galactosidase in CMV-LacZ C2C12 myotubes", 0.8406],
  ["O=C(O)CCCNC(=O)CCn1nnc2ccccc2c1=O", "β-galactosidase in CMV-LacZ C2C12 myotubes", 1.13],
  ["O=CN1CCN(C(=O)CC(c2ccccc2)c2cc(Br)ccc2O)CC1 (stereo not drawn)", "β-galactosidase in CMV-LacZ C2C12 myotubes", 0.9960],
  ["COc1ccccc1CC(=O)Nc1cc(S(=O)(=O)N2CCOCC2)ccc1N1CCOCC1", "β-galactosidase in CMV-LacZ C2C12 myotubes", 0.9248],
  ["COc1ccc(CCNC(=O)c2cc(-c3cc(C)ccc3O)n[nH]2)cc1OC", "β-galactosidase in CMV-LacZ C2C12 myotubes", 1.0688],
  ["CNC(=O)CSc1nnc(-c2ccc3c(c2)OCO3)n1C", "β-galactosidase in CMV-LacZ C2C12 myotubes", 0.9569],
  ["Cc1nc2c(cnn2-c2ccccc2)c(=O)n1/N=C/c1ccccc1", "β-galactosidase in CMV-LacZ C2C12 myotubes", 0.9613],
  ["CCc1ccc(S(=O)(=O)NCCOc2cccc3cccnc23)cc1", "β-galactosidase in CMV-LacZ C2C12 myotubes", 1.0965],
  ["Cc1[nH]c2ccc(F)cc2c1CCN(Cc1ccco1)C(=S)NC(C)(C)C", "β-galactosidase in CMV-LacZ C2C12 myotubes", 1.1581],
  ["O=C(NCCc1ccccc1)C1CCC(=O)N1C1CCCC1 (stereo not drawn)", "β-galactosidase in CMV-LacZ C2C12 myotubes", 0.9662],
  ["CCCc1nnc(SCC(=O)NC2CCCC2)n1CCOC", "β-galactosidase in CMV-LacZ C2C12 myotubes", 0.9648],
  ["Cc1cc(OCC(=O)NC(C)C)ccc1Cl", "β-galactosidase in CMV-LacZ C2C12 myotubes", 1.1903],
  ["c1ccc(-c2cc(-c3nc4ccccc4[nH]3)c3ccccc3n2)cc1", "β-galactosidase in CMV-LacZ C2C12 myotubes", 0.9798],
  ["COc1ccc(S(=O)(=O)N2CCCCCC2)cc1C(=O)N1CCN(c2ccccc2O)CC1", "β-galactosidase in CMV-LacZ C2C12 myotubes", 0.8336],
  ["COc1ccccc1NS(=O)(=O)c1cc(NC(=O)c2ccc(Cl)nc2)ccc1N1CCCC1", "β-galactosidase in CMV-LacZ C2C12 myotubes", 1.1534],
  ["O=c1[nH]c2ccccc2nc1-c1c[nH]c2ccccc12", "β-galactosidase in CMV-LacZ C2C12 myotubes", 1.0274],
  ["CCOc1cc(C)c(S(=O)(=O)N2CCCCC2)cc1C", "β-galactosidase in CMV-LacZ C2C12 myotubes", 1.0774],
  ["Cl.O=C1C2CCCN2C(=O)N1CCCN1CCN(c2cccc(Br)c2)CC1 (stereo not drawn)", "β-galactosidase in CMV-LacZ C2C12 myotubes", 1.0084],
  ["CC(C)(C)c1csc(NC(=O)c2cccnc2)n1", "β-galactosidase in CMV-LacZ C2C12 myotubes", 1.2418],
  ["COC(=O)Cc1c(O)ccn(Cc2ccc3c(c2)OCO3)c1=O", "β-galactosidase in CMV-LacZ C2C12 myotubes", 1.036]
]}
